Entry source: ChEMBL document CHEMBL4390675

Target: D(4) dopamine receptor (Homo sapiens)
Sequence (P21917 whole entry): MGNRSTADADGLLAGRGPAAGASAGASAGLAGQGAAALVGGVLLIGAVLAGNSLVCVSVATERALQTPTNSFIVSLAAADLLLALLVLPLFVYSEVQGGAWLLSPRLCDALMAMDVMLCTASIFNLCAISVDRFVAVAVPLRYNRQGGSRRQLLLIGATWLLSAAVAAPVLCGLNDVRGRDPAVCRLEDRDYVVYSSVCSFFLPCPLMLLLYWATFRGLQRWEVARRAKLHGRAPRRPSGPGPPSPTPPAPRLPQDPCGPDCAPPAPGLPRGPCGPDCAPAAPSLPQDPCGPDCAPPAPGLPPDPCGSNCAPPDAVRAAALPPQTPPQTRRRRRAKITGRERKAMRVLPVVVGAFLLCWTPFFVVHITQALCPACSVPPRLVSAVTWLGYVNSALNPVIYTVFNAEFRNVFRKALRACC
Assay: Antagonist activity at human D4 receptor expressed in CHOK1 cells assessed as suppression of dopamine-induced inhibition of forskolin-stimulated cAMP accumulation measured after 30 mins by Eu-cAMP tracer based TR-FRET assay
Assay type: functional, cell-based
Readout Kind: IC50 (nM)
Please give a number only; it is taken to be in nM.

Example cases with answers are listed next.
CCc1cccc(NC(=O)CN2CCN(c3ccccn3)CC2)c1 | 1310
Cc1cccc(NC(=O)CN2CCC(c3ccccn3)CC2)c1 | 68.4
Cc1cccc(NC(=O)CCN2CCN(c3ccccn3)CC2)c1 | 1630

Prompt line: // returns reported IC50 for input `Cc1cccc(NC(=O)CN2CCN(c3cccc4ccccc34)CC2)c1`
Response line: 2520

Prompt line: // returns reported IC50 for input `Cc1cccc(NC(=O)CCN2CCC(c3ccccn3)CC2)c1`
Response line: 6340

----------
target: D(4) dopamine receptor (Homo sapiens); assay: Antagonist activity at human D4 receptor expressed in CHOK1 cells assessed as inhibition of dopamine-induced beta-arrestin recruitment measured after 90 mins by luminescence assay relative to control; assay type: cell-based; parameters: concentration or dose not given beside the values
Documented inhibition across a set of compounds
Please give a number only; it is taken to be in %.

Prompt line: Query for D(4) dopamine receptor (Homo sapiens): what inhibition does the record show for `Cc1cccc(NC(=O)CN2CCC(c3ccccn3)CC2)c1` ?
Response line: 81.7

Prompt line: Query for D(4) dopamine receptor (Homo sapiens): what inhibition does the record show for `CCc1cccc(NC(=O)CN2CCN(c3ccccn3)CC2)c1` ?
Response line: 59.7

Prompt line: Query for D(4) dopamine receptor (Homo sapiens): what inhibition does the record show for `Cc1cccc(NC(=O)CN2CCC(c3ccccc3)CC2)c1` ?
Response line: 93.3

Prompt line: Query for D(4) dopamine receptor (Homo sapiens): what inhibition does the record show for `O=C(CN1CCN(c2ccccn2)CC1)Nc1cccnc1` ?
Response line: 100
